- System: HS-PSS
- Test Method Notes: relative IC50 (inflection point of fitted dose-response curve, CellTiter-Glo viability, 72 h; top asymptote may be below 50% inhibition); higher = less potent
Measurement Type: relative IC50 (nM)
# number only, unit nM dropped from output

Data request: Could you please provide reported relative IC50 for Cn1cc(C2=Nc3cc(NC(=O)C(N)C4CCCCC4)cc4c3C2=CNNC4=O)cn1 (stereo not drawn) ? Thanks!
Data returned: 77.1

Data request: Identify relative IC50 associated with the molecule COc1cc(F)c(F)c(Nc2ccc(I)cc2F)c1NS(=O)(=O)C1(C[C@H](O)CO)CC1 [Refametinib]
Data returned: 1800

Data request: Consider the molecule Cn1cc(CNCC2CCN(c3ncc(C(=O)NO)cn3)CC2)c2ccccc21 [Quisinostat] . State its measured relative IC50.
Data returned: 42.8

Data request: Give the value of relative IC50 reported for the following: COc1ncc(-c2ccc3nccc(-c4ccnnc4)c3c2)cc1NS(=O)(=O)c1ccc(F)cc1F [Omipalisib]
Data returned: 35.2

Data request: Provide one value: measured relative IC50 of Nc1ccccc1NC(=O)c1ccc(CNc2nccc(-c3cccnc3)n2)cc1 [Mocetinostat]
Data returned: 2200

Data request: Specify reported relative IC50 for the molecule shown: O=C(Cc1ccc(-c2ccc(OCCN3CCOCC3)cc2)cn1)NCc1ccccc1 [KX2-391]
Data returned: 163

Data request: Please give measured relative IC50 of the following entry: CN[C@@H](C)C(=O)N[C@H](C(=O)N1CCC[C@H]1c1nc(C(=O)c2ccc(F)cc2)cs1)C1CCCCC1 [LCL161]
Data returned: 3860

====

- System: HS-PSS
- Test Method Notes: % inhibition of CellTiter-Glo viability at highest tested concentration (72 h), relative to DMSO and benzethonium chloride controls; higher = more inhibition
Assign class by % inhibition: not lower than 40% means yes (1); lower than 40% means no (0).

# example entries with known answers
>  <Compound>
CCn1nnc2c(N3CCOCC3)nc(-c3ccc(NC(=O)Nc4ccc(C(=O)N5CCN(C)CC5)cc4)cc3)nc21 [PKI-402] (max concentration tested 2500 nM)

>  <Label>
yes (1)

$$$$
>  <Compound>
Cc1cc(-c2ncc(CC(=O)Nc3ccc(-c4cnccn4)cn3)cc2C)ccn1 [NVP-LGK974] (max concentration tested 10000 nM)

>  <Label>
yes (1)

$$$$

Data request: Quick check: does O=P1(N(CCCl)CCCl)NCCCO1 (stereo not drawn) [Cyclophosphamide] (max concentration tested 40000 nM) have % inhibition greater than or equal to 40%?
Data returned: no (0)

Data request: Answer whether % inhibition of CC[C@H](C)C(=O)O[C@H]1C[C@H](O)C=C2C=C[C@H](C)[C@H](CC[C@@H](O)C[C@@H](O)CC(=O)O)[C@H]21 [Pravastatin] (max concentration tested 10000 nM) is greater than or equal to 40%.
Data returned: no (0)

Data request: # bool: % inhibition of NC(=S)N/N=C/c1ncccc1N [Triapine] (max concentration tested 10000 nM) >= 40%
Data returned: yes (1)

Data request: % inhibition >= 40% for Nc1ncnc2c1nc(Cl)n2[C@@H]1O[C@H](CO)[C@@H](O)[C@H]1O [8-chloro-adenosine] (max concentration tested 50000 nM) ?
Data returned: yes (1)

Data request: Please check the record CO[C@H]1C(=O)[C@]2(C)[C@@H](OC)C[C@H]3OC[C@@]3(OC(C)=O)[C@H]2[C@H](OC(=O)c2ccccc2)[C@]2(O)C[C@H](OC(=O)[C@H](O)[C@@H](NC(=O)OC(C)(C)C)c3ccccc3)C(C)=C1C2(C)C [Cabazitaxel] (max concentration tested 1000 nM) and state if its % inhibition is at or above 40%.
Data returned: yes (1)

====

- Test system: HS-PSS
- Test Method Notes: drug sensitivity score (DSS, CellTiter-Glo viability, 72 h) (DSS (dimensionless)); higher = more sensitive; extreme values may be limits of the assay
Known drug sensitivity score of a selection of compounds
# output: bare number, no unit

>  <Compound>
O=S(=O)(c1cccc2cnccc12)N1CCCNCC1 [Fasudil] (max concentration tested 50000 nM)

>  <drug sensitivity score>
1.83

$$$$
>  <Compound>
CC1(C)CNc2cc(NC(=O)c3cccnc3NCc3ccncc3)ccc21 [Motesanib] (max concentration tested 10000 nM)

>  <drug sensitivity score>
0

$$$$

Next item in the queue.
Data request: Give a short answer stating reported drug sensitivity score for COc1ccc(Cl)c(Nc2nc3ccccc3nc2NS(=O)(=O)c2cccc(NC(=O)C(C)(C)N)c2)c1 [Pilaralisib] (max concentration tested 2500 nM) .
Data returned: 0

====

Listing: relative IC50 of selected compounds
- Test system: STS26T
- Test Method Notes: relative IC50 (inflection point of fitted dose-response curve, CellTox-Green cytotoxicity, 72 h; top asymptote may be below 50%); higher = less potent

Before answering, review these 6 worked examples.
>  <Compound>
OC[C@H]1O[C@@H](n2cnc3c2N=CNC[C@H]3O)C[C@@H]1O

>  <Target Or System>
STS26T

>  <Result>
> 10 µM

$$$$
>  <Compound>
CC(=O)c1c(C)c2cnc(Nc3ccc(N4CCNCC4)cn3)nc2n(C2CCCC2)c1=O

>  <Target Or System>
STS26T

>  <Result>
> 10 µM

$$$$
>  <Compound>
CN1CCN(c2ccc3nc(-c4c(N)c5c(F)cccc5[nH]c4=O)[nH]c3c2)CC1

>  <Target Or System>
STS26T

>  <Result>
> 10 µM

$$$$
>  <Compound>
O=C1CN2Cc3c(ccc(Cl)c3Cl)N=C2N1 [Anagrelide]

>  <Target Or System>
STS26T

>  <Result>
> 10 µM

$$$$
>  <Compound>
c1ccc([C@H]2CN3CCSC3=N2)cc1

>  <Target Or System>
STS26T

>  <Result>
> 10 µM

$$$$
>  <Compound>
COc1ccc(-c2cc3c(C)nc(N)nc3n([C@H]3CC[C@H](OCCO)CC3)c2=O)cn1

>  <Target Or System>
STS26T

>  <Result>
0.35 µM

$$$$

API: the following record is the query input.
Data request: Please give measured relative IC50 of the following entry: `CCc1cnn2c(NCc3ccc[n+]([O-])c3)cc(N3CCCC[C@H]3CCO)nc12`
Data returned: 0.00871 µM

====

- Tested on: ST8814
- Test Method Notes: drug sensitivity score (DSS, CellTiter-Glo viability, 72 h) (DSS (dimensionless)); higher = more sensitive; extreme values may be limits of the assay
Rule: drug sensitivity score of 3 or more gives MET; anything lower gives NOT MET.

A selection of reference data follows.
>  <Molecule>
COc1cc2c(Oc3ccc(NC(=O)C4(C(=O)Nc5ccc(F)cc5)CC4)cc3F)ccnc2cc1OCCCN1CCOCC1 [Foretinib] (max concentration tested 1000 nM)

>  <Target Or System>
ST8814

>  <Label>
MET

$$$$
>  <Molecule>
NC(=O)NO [Hydroxyurea] (max concentration tested 100000 nM)

>  <Target Or System>
ST8814

>  <Label>
NOT MET

$$$$
>  <Molecule>
O=S(=O)(c1cccc2cnccc12)N1CCCNCC1 [Fasudil] (max concentration tested 50000 nM)

>  <Target Or System>
ST8814

>  <Label>
NOT MET

$$$$
>  <Molecule>
CCN(CC)CCOc1ccc(/C(=C(/Cl)c2ccccc2)c2ccccc2)cc1 [Clomifene] (max concentration tested 10000 nM)

>  <Target Or System>
ST8814

>  <Label>
MET

$$$$
>  <Molecule>
COc1cc(F)c(F)c(Nc2ccc(I)cc2F)c1NS(=O)(=O)C1(C[C@H](O)CO)CC1 [Refametinib] (max concentration tested 10000 nM)

>  <Target Or System>
ST8814

>  <Label>
MET

$$$$
>  <Molecule>
CO[C@H]1/C=C\C=C(/C)C(=O)NC2=CC(=O)C(NCCN(C)C)=C(C[C@@H](C)C[C@H](OC)[C@H](O)[C@@H](C)/C=C(\C)[C@@H]1OC(N)=O)C2=O [Alvespimycin] (max concentration tested 1000 nM)

>  <Target Or System>
ST8814

>  <Label>
MET

$$$$

Data request: // inclusive: drug sensitivity score at least 3? input: Cn1c(=O)c(F)c(Nc2ccc(I)cc2F)c2c(=O)n(C[C@@H](O)CO)cnc21 [TAK-733] (max concentration tested 1000 nM)
Data returned: MET

Data request: Does the reported drug sensitivity score for Cn1cnc(-c2cc3nccc(Oc4ccc(NC(=S)NC(=O)Cc5ccccc5)cc4F)c3s2)c1 [MGCD-265] (max concentration tested 10000 nM) fall at or above the 3 mark?
Data returned: MET

Data request: Record CNC(=O)c1ccc(N2C(=S)N(c3ccc(C#N)c(C(F)(F)F)c3)C(=O)C2(C)C)cc1F [Enzalutamide] (max concentration tested 10000 nM) ; criterion: drug sensitivity score no lower than 3. Met?
Data returned: NOT MET
